assay-details: recombinant UMI read abundance after kanamycin selection (control-corrected) (log10(CPM+1)); higher = more efficient recombination; extreme values may be limits of the assay; sequences stand for … in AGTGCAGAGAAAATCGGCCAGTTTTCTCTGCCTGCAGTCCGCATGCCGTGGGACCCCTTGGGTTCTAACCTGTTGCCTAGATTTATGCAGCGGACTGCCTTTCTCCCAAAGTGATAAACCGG…AGGTTGGTTTCACT; site = the 11-nt donor;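 also: IS621 bridge recombinase in Escherichia coli cells against a fixed T5 target plasmid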
sequences and their reported recombinant UMI read abundance (log10)
Provide a numeric answer; units are not to be included.

Exercise: Given the sequence CACTCCTCATGGACCGGTTTTCCCGGTAATCCGTATTTGCC (site CACTCCTCTGT) , write its reported recombinant UMI read abundance (log10).
Solution: 2.74

Exercise: Given the sequence GCGTACTCATGGACCGGTTTTCCCGGTAATCCGTATTTGAC (site GCGTACTCTGT) , write its reported recombinant UMI read abundance (log10).
Solution: 3.44

Exercise: Given the sequence CCCTCGCCATGGACCGGTTTTCCCGGTAATCCGTATTTGCC (site CCCTTGCCTGG) , write its reported recombinant UMI read abundance (log10).
Solution: 0.011

Exercise: Given the sequence ACACAGCCATGGACCGGTTTTCCCGGTAATCCGTATTTGAC (site ACACACCCTGT) , write its reported recombinant UMI read abundance (log10).
Solution: 1.68

Values were extracted from the supplement of paper PMC11208160.
